Parameter: inhibition. Scope: all listed entries.
Tested on: Tyrosine-protein kinase ABL1 (Homo sapiens), P00519 [Q252H]
assay-conditions: at 1 µM
value-type: inhibition (%)

- chemical-smiles: "COc1ccc2cc(-c3c(-c4ccncc4)nc(-c4ccc(S(C)(=O)=O)cc4C)n3C)ccc2c1"
  value-type: "inhibition"
  result-number: 22.4
- chemical-smiles: "CN(C)CCCNc1nccc(-c2c(-c3ccc(F)cc3)nn3cc(C(F)(F)F)ccc23)n1"
  value-type: "inhibition"
  result-number: 5.19
- chemical-smiles: "NC(=O)Cc1ccccc1Oc1nccc(-c2c(-c3ccc(F)cc3)ncn2C2CCNCC2)n1"
  value-type: "inhibition"
  result-number: 1.77
- chemical-smiles: "NC(=O)c1cc(-c2ccc(F)cc2)cc(-c2ccncc2)c1N"
  value-type: "inhibition"
  result-number: 5.67
- chemical-smiles: "COc1cc2ncn(-c3cc(OCc4ccccc4C(F)(F)F)c(C(C)=O)s3)c2cc1OC"
  value-type: "inhibition"
  result-number: 4.96
